Here, each record is paired with measured inhibition at 10 µM data.
# Measured Target: 5-lipoxygenase (Cavia porcellus, UniProt A0A286X958)
# Construct: endogenous in cells; host or cells: guinea pig (Hartley strain) casein-elicited peritoneal exudate cells, intact cell suspension
# Sequence (A0A286X958 1-674): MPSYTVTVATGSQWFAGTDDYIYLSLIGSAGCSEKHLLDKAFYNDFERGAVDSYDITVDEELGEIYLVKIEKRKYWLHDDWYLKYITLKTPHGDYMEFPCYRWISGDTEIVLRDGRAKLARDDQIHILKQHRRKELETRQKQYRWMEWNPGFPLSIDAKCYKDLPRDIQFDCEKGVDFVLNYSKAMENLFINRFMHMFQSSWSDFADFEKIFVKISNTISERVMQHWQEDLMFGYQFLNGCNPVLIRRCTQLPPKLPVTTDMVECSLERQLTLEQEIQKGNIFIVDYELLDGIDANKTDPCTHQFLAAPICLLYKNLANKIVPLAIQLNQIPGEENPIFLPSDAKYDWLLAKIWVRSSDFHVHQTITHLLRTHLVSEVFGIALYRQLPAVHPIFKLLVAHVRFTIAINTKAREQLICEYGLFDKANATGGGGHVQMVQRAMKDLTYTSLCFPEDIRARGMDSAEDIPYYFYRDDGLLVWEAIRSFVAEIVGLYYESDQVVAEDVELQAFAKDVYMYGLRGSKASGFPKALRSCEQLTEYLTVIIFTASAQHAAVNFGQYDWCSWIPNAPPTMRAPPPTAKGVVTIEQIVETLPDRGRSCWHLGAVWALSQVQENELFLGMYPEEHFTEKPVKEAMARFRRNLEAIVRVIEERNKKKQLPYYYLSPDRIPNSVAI
# Procedure Details: 5-Lipoxygenase inhibitory activity (conversion of 14C-arachidonic acid to 5-HETE) in guinea pig peritoneal exudate cells
# Assay type: cell-based, guinea pig (Hartley strain)
# Recorded Conditions: concentration 10^-5 M; read-out: inhibition ratio (%) of 5-lipoxygenase activity
Write the answer as a number in %, unit excluded.

Below are worked cases with known answers.
I have this compound here, CCCCC#CCCCCCCCCCC1=C(OC)C(=O)C=C(OC)C1=O [Test Compound No. 32] , and I need its recorded inhibition at 10 µM. 87

I have this compound here, CCCC/C=C\CCCCCCCC1=C(OC)C(=O)C=C(OC)C1=O [Test Compound No. 34] , and I need its recorded inhibition at 10 µM. 89

I have this compound here, COC1=CC(=O)C(O)=C(CCCCCCC/C=C\CCCCCCCC2=C(O)C(=O)C(C)=C(OC)C2=O)C1=O [Test Compound No. 3] , and I need its recorded inhibition at 10 µM. 97

I have this compound here, CCCCC#CCCCCCCCC1=C(OC)C(=O)C=C(OC)C1=O [compound 31] , and I need its recorded inhibition at 10 µM. 93

I have this compound here, CCCC/C=C\CCCCCC1=C(OC)C(=O)C=C(OC)C1=O [Test Compound No. 33] , and I need its recorded inhibition at 10 µM. 89

I have this compound here, CCCCC#CCCCCCC1=C(OC)C(=O)C=C(OC)C1=O [compound 30] , and I need its recorded inhibition at 10 µM. 91

I have this compound here, CCCC/C=C\CCCCCCCCCC1=CC(=O)C=C(OC)C1=O [Test Compound No. 1] , and I need its recorded inhibition at 10 µM. 81

Kindly review the next compound as well.
I have this compound here, CCCCCCCCCCCCCC1=C(OC)C(=O)C=C(OC)C1=O [Test Compound No. 8] , and I need its recorded inhibition at 10 µM. 74
